All figures here come from ChEMBL document CHEMBL1961873.

molecular target: Tyrosine-protein kinase FRK (Homo sapiens) (UniProt P42685); conditions: at 1 µM;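 also: reported percent inhibition is a mean value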
Sequence (P42685 whole entry): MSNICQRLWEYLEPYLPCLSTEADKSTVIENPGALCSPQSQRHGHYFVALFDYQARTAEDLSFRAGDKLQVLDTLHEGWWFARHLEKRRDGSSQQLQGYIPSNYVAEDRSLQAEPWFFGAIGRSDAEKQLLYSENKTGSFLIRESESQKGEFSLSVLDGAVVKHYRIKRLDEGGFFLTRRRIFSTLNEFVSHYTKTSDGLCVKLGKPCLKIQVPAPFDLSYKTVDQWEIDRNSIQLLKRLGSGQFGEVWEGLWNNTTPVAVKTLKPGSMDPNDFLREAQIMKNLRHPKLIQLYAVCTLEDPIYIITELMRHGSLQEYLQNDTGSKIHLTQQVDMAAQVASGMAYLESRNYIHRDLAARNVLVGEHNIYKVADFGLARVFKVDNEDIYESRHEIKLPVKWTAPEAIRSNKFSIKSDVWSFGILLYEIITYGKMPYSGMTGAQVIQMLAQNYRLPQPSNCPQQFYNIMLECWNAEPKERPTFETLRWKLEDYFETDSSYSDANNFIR
PARAMETER: inhibition (%)
Number in %, nothing else.

CCn1c(-c2nonc2N)nc2cncc(C(=O)N3CC[C@H](N)C3)c21 : 2.04
COC(=O)Nc1nc2cc(Oc3ccc(NC(=O)Nc4cccc(C(=O)O)c4)cc3)ccc2[nH]1 : 0.91
COc1ccc(-c2nn3ncccc3c2-c2ccnc(Nc3ccc(Cl)c(C(F)(F)F)c3)n2)cc1 : 0.79

Ask | Look up inhibition for this compound: CS(=O)(=O)CCN(CC#N)Cc1ccc(-c2ccc3ncnc(Nc4ccc(OCc5cccc(F)c5)c(Cl)c4)c3c2)o1
Reply | 2.48

Ask | Look up inhibition for this compound: CCCN1CCC=C(c2ccc(Nc3nc(Nc4ccccc4C(N)=O)c4cc[nH]c4n3)c(C)c2)C1
Reply | 4.17

Ask | Look up inhibition for this compound: Nc1nc(-c2ccc3c(c2)C(=Cc2cc(Br)c(O)c(Br)c2)C(=O)N3)cs1
Reply | 3.29
